From: patent US10316039B2

- tgt: P2X2/3 (Homo sapiens, UniProt P56373+Q9UBL9)
- procedure-summary: P2X2/3 FLIPR intracellular calcium assay
- measurement-parameters: agonist at EC75, species (human or rat) not given
# Lookup of reported IC50 keyed by entry

- Cc1ncc(CNC(=O)c2cc(-n3nncc3C(C)C)c3ncc(-c4ccc(C)s4)n3c2)cn1: 1 to 100 nM
- Cc1ccc(-c2cnc3c(Nc4ccc(F)cc4)cc(C(=O)N[C@@H](C)c4nnc[nH]4)cn23)s1: > 10000 nM
- C[C@H](NC(=O)c1cc(-n2nncc2C(F)F)c2ncc(-c3ccc(Cl)s3)n2c1)c1nnc[nH]1: 1 to 100 nM

Kindly consider the entry below.
// IC50 value for Cc1ccc(-c2cnc3c(-n4nncc4C)cc(C(=O)N[C@@H](C)c4nnc[nH]4)cn23)s1 : 100 to 1000 nM

###

Examples of compounds with documented pIC50 follow.
- tgt: P2X2/3 (Homo sapiens, UniProt P56373+Q9UBL9)
- Sequence (Q9UBL9 1-471): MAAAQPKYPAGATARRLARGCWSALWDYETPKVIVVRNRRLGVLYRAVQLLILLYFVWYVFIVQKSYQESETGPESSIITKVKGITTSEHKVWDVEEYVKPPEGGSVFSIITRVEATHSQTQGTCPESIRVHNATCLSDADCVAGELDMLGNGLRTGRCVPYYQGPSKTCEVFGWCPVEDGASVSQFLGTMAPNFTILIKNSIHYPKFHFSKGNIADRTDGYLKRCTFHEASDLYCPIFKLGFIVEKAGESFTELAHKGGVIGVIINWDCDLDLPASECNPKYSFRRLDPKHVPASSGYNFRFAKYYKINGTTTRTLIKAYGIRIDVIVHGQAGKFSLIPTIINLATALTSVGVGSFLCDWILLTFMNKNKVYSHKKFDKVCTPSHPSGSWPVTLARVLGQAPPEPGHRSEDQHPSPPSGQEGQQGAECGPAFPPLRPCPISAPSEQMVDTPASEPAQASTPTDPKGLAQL
- Sequence (P56373 1-397): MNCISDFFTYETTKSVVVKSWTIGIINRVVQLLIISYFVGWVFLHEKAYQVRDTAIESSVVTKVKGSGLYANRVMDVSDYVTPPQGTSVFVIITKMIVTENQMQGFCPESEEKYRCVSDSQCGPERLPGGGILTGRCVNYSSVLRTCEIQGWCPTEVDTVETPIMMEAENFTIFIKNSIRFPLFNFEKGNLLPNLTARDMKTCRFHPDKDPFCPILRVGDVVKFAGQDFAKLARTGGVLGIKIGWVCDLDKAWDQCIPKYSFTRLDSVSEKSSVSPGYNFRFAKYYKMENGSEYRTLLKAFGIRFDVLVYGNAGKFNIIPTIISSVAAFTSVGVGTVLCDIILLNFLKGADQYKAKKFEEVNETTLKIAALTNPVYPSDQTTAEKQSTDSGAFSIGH
- procedure-summary: P2X2/3 FLIPR intracellular calcium assay
- measurement-parameters: agonist at EC75, species (human or rat) not given
- Description: The FLIPR® assay utilizes cells which express human or rat P2X3 or P2X2/3 receptors. […] Compounds were added to the respective wells of the assay-ready cell plate with the help of the FLIPR and fluorescence readings were captured for 5 min to observe any possible agonistic property of the compounds. […] The cells were stimulated with respective agonist EC75 concentration and the fluorescence readings were captured for another 5 min by FLIPR. […]
pIC50: −log10 of the molar value.

Worked examples follow.
* Cc1ncc(CNC(=O)c2cc(-n3nncc3C3CCC3)c3ncc(-c4ncc(C)s4)n3c2)cn1 | 6.00 to 7.00
* Cc1ncc(CNC(=O)c2cc(-n3nncc3C(F)F)c3ncc(-c4ccc(C)o4)n3c2)cn1 | 7.00 to 9.00
* Cc1ccc(-c2cnc3c(-n4nnnc4C(C)(F)F)cc(C(=O)N[C@@H](C)c4nnc[nH]4)cn23)s1 | 7.00 to 9.00
* Cc1ccc(CNC(=O)c2cc(-n3c(C)cnc3C)c3ncc(-c4ccc(C)s4)n3c2)cn1 | 6.00 to 7.00
* CCC(=O)N(C)c1cc(C(=O)N[C@@H](C)c2nnc[nH]2)cn2c(-c3ccc(C)s3)cnc12 | 6.00 to 7.00
* CCc1nnc(-c2cc(C(=O)N[C@@H](C)c3nnc[nH]3)cn3c(-c4ccc(C)s4)cnc23)o1 | 5.00 to 6.00
* CCc1nnnn1-c1cc(C(=O)NCc2ccc(C3CC3)nc2)cn2c(-c3ccc(C)s3)cnc12 | 6.00 to 7.00
* Cc1ccc(-c2cnc3c(-n4c(C)nnc4C)cc(C(=O)N[C@@H](C)c4nnc[nH]4)cn23)s1 | 6.00 to 7.00

For reference, reported pIC50 for Cc1ccc(CNC(=O)c2cc(-n3nncc3C(F)(F)F)c3ncc(-c4ncc(C)s4)n3c2)cn1 stands at 6.00 to 7.00

// pIC50 value for CC1CCN(c2cc(C(=O)N[C@@H](C)c3nnc[nH]3)cn3c(-c4ccc(Cl)s4)cnc23)CC1 : 6.00 to 7.00
